These data points were gathered from patent US20240050601A1.

Method Description: in vivo
Assay Context: Balb/C, mouse, sc, 500 μl
Measured Metric: half-life

query: Entry CC1(C)C(/C=C/C=C/C=C/C=C2\N(CCCCS(=O)(=O)O)c3ccc4ccccc4c3C2(C)C)=[N+](CCCCS(=O)(=O)[O-])c2ccc3ccccc3c21 needs its half-life filled in; supply it.
result: ~24 h

---

Method Description: in vivo
Assay Context: Balb/C, mouse, im, 50 μl
Measured Metric: half-life

query: Fill in half-life for record CC1(C)C(/C=C/C=C/C=C/C=C2\N(CCCCS(=O)(=O)O)c3ccc4ccccc4c3C2(C)C)=[N+](CCCCS(=O)(=O)[O-])c2ccc3ccccc3c21
result: ~4 h
